Origin of the recorded values: patent US6689799B1

I'd be grateful if you could share measured CC50 for these entries.
Assay: Cytotoxicity, reduction of cell growth (Table 2, VZV)
Format: cell-based
Conditions: Table 2, varicella zoster virus
One number for each entry, in µg/mL.

Give one value of CC50 per listed molecule.
1. COC(=O)C1=C(C)NC(C)=C(C(=O)OCCOc2cc(=O)oc3ccccc23)C1c1ccccc1 (stereo not shown)
2. COC(=O)C1=C(C)NC(C)=C(C(=O)OCC(C)(C)COc2cc(=O)oc3ccccc23)C1c1ccccc1 (stereo not shown)
3. CCOC(=O)C1=C(C)NC(COc2cc(=O)oc3ccccc23)=C(C(=O)OCC)C1c1cccc([N+](=O)[O-])c1 (stereo not shown)

Reply text:
[4.5, 8.5, 1.6]
